Numbers sourced from ChEMBL document CHEMBL4177663.

Molecular target: Kallikrein-5 (Homo sapiens, UniProt Q9Y337)
Sequence (Q9Y337 whole entry): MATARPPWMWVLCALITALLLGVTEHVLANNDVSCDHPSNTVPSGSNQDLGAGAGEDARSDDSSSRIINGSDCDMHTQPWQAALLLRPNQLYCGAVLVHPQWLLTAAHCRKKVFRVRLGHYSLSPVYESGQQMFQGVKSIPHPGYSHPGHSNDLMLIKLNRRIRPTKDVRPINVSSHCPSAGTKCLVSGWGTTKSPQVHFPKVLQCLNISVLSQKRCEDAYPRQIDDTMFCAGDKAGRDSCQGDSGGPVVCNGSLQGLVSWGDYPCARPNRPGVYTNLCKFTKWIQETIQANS
Assay: Inhibition of recombinant human C-terminal 10-His tagged KLK5 preincubated for 10 mins followed by Boc-Val-Pro-Arg-MCA peptide substrate addition measured after 30 mins by fluorescence analysis
pIC50: −log10 of the molar value.
REPORTED ENDPOINT: pIC50

Requested read-out: pIC50. Entry: COc1ccc(Cl)cc1C[C@@H]1CN/C(=N\N(C)C)CN(CC(=O)Nc2cccc(C(=O)O)c2)C1=O.Cl < 4.52

Requested read-out: pIC50. Entry: COc1ccc(Cl)cc1C[C@@H]1CN/C(=N\N(C)C)CN(CC(=O)Nc2cccc(S(C)(=O)=O)c2)C1=O < 4.52

* * *

For each of the compounds below, state its pIC50.
biological target: Kallikrein-7 (Homo sapiens, UniProt P49862); experiment: Inhibition of thermolysin activated recombinant human C-terminal 10-His tagged KLK7 preincubated for 10 mins followed by MOCAc-Arg-Pro-Lys-Pro-Val-Glu-Nva-Trp-Arg-Lys(Dnp)-NH2 peptide substrate addition measured after 30 mins by fluorescence analysis
Sequence (P49862 whole entry): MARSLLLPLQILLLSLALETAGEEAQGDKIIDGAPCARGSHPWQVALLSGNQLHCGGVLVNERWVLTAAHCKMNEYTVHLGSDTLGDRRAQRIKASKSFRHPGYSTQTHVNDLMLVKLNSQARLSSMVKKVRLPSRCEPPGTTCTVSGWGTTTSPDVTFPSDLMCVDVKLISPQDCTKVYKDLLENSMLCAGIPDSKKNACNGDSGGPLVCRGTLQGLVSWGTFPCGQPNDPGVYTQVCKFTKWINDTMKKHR
# pIC50 = -log10(concentration in molar units)

Requested read-out: pIC50. Entry: COc1ccc(Cl)cc1C[C@@H]1CN/C(=N\N(C)C)CN(CC(=O)Nc2cccc(C(=O)O)c2)C1=O.Cl 5.72

Requested read-out: pIC50. Entry: COc1ccc(Cl)cc1C[C@@H]1CN/C(=N\Oc2cc(F)cc(F)c2)CN(CC(=O)Nc2ccc(O)c(C(=O)O)c2)C1=O 5.24

Requested read-out: pIC50. Entry: COc1ccc(Cl)cc1C[C@@H]1CN/C(=N\N(C)C)CN(CC(=O)Nc2ccccn2)C1=O 4.80

Requested read-out: pIC50. Entry: COc1ccc(Cl)cc1C[C@@H]1CN/C(=N\N(C)C)CN(CC(=O)Nc2cccnc2)C1=O 5.05

Requested read-out: pIC50. Entry: CO/N=C1/CN(CC(=O)Nc2cccc(C(=O)O)c2)C(=O)[C@H](Cc2cc(Cl)ccc2OC)CN1 4.85

Requested read-out: pIC50. Entry: COc1ccc(Cl)cc1C[C@@H]1CN/C(=N\N(C)C)CN(CC(=O)Nc2ccccc2)C1=O 5.35

Requested read-out: pIC50. Entry: CCO/N=C1/CN(CC(=O)Nc2cccc(C(=O)O)c2)C(=O)[C@H](Cc2cc(Cl)ccc2OC)CN1 4.89

Requested read-out: pIC50. Entry: COc1ccc(Cl)cc1C[C@@H]1CN/C(=N\Oc2c(F)cccc2F)CN(CC(=O)Nc2cccc(C(=O)O)c2)C1=O 5.27

Requested read-out: pIC50. Entry: COc1ccc(Cl)cc1C[C@@H]1CN/C(=N\N(C)C)CN(CC(=O)Nc2cccc(S(C)(=O)=O)c2)C1=O 6.09

Requested read-out: pIC50. Entry: COc1ccc(Cl)cc1C[C@@H]1CN/C(=N\N(C)C)CN(CC(=O)Nc2ccc(C(=O)O)cc2)C1=O 4.52
